pIC50: −log10 of the molar value.
For Tie-2 kinase enzyme (Homo sapiens), measured pIC50 is reported for the entries below.

{"Compound": "Cc1ccc(C(=O)Nc2cccc(C(C)C)c2)cc1Oc1ncccc1-c1cn[nH]c1 [Example 1]", "pIC50": "≥ 7.00"}
{"Compound": "CN(C)CCCN(C)c1ccc(C(F)(F)F)cc1NC(=O)c1cc(Oc2ncccc2-c2cnco2)ccc1F [Example 2]", "pIC50": "≥ 6.30"}
{"Compound": "Cc1ccc(C(=O)Nc2cccc(C(F)(F)F)c2)cc1Oc1ncccc1-c1cnco1 [Example 22]", "pIC50": "≥ 7.00"}
{"Compound": "Cc1ccc(C(=O)Nc2cc(C(F)(F)F)ccc2N(C)CCCN(C)C)cc1Oc1ccccc1-c1cnco1 [Example 19]", "pIC50": "≥ 6.30"}
{"Compound": "Cc1ccc(C(=O)Nc2cccc(C(C)C)c2)cc1Nc1ncccc1-c1nnn[nH]1 [Example 12]", "pIC50": "≥ 6.30"}
{"Compound": "Cc1ccc(C(=O)Nc2cccc(C(C)C)c2)cc1Oc1ccccc1-c1cnco1 [Example 18]", "pIC50": "≥ 7.00"}
{"Compound": "O=C(Nc1ccc(Oc2ncccc2-c2cn[nH]c2)cc1)c1ccccc1Nc1ccccc1 [Example 23]", "pIC50": "≥ 6.00"}
{"Compound": "Cc1ccc(C(=O)Nc2cccc(C(C)C)c2)cc1Oc1ncccc1-c1cnn(Cc2ccccc2)c1 [Example 10]", "pIC50": "≥ 6.30"}
